- System under test: Sphingomyelin phosphodiesterase (Homo sapiens)
- Procedure summary: Inhibitors of Secretory Acid Sphingomyelinase (S-ASM): qHTS
- Condition summary: placental ASM, HMU-PC fluorogenic substrate, 60 min; series mostly up to 57.5 µM
Out of some 340,000 compounds screened, about 20 (0.006%) were called active. This excerpt belongs to a sample that is enriched for actives.
Quantity name: outcome

Observe how each entry below is paired with its result.
compound=COc1nc(OC)nc(N(C)CCO)n1 test_result=inactive
compound="COc1ccc(C(=O)N(C)CC(O)c2ccccc2)cc1OC1CCN(C(C)=O)CC1 (configuration not stated)" test_result=inactive
compound=Cc1ccc2c(c1)nnc1nnc(SCC(=O)O)n12 test_result=inactive
compound=COc1cc2c(cc1OC)C(Cc1cc(OC)c(OC)cc1[N+](=O)[O-])=NCC2 test_result=inactive
compound="CC1C(=O)N2CCCc3cc(S(=O)(=O)NCc4ccc(F)cc4)cc1c32 (configuration not stated)" test_result=inactive
compound=Cc1cccc(-[n+]2c(-c3cccc(Br)c3)[nH]c3nc4ccccc4nc32)c1 test_result=inactive
compound=CC(=O)N1CCc2ccc(N)cc21 test_result=inactive
compound="COC(=O)C1=C(C(=O)OC)C2(OC1c1ccc(Br)cc1)C(=O)c1ccccc1C2=O (configuration not stated)" test_result=inactive
compound=CCC(CC)C(=O)Nc1ccc(S(=O)(=O)Nc2nccs2)cc1 test_result=inactive
compound=COc1ccc(SCCN2CCN(CC(C)C)CCC2=O)cc1 test_result=inactive

[Q] Fill in outcome for record O=C1/C(=C/c2ccc(F)cc2)SC(=S)N1NS(=O)(=O)c1ccccc1
[A] inactive

[Q] Fill in outcome for record NC(CSC12CC3CC(CC(C3)C1)C2)C(=O)O (configuration not stated)
[A] inactive

* * *

- System under test: Sphingomyelin phosphodiesterase (Homo sapiens)
- Procedure summary: Inhibitors of Secretory Acid Sphingomyelinase (S-ASM): qHTS
- Condition summary: placental ASM, HMU-PC fluorogenic substrate, 60 min; series mostly up to 57.5 µM
In all, about 340,000 compounds went through this assay and about 20 (0.006%) were called active. Only a selection was taken, and actives are over-represented in it overall.
Quantity name: outcome

Observe how each entry below is paired with its result.
compound="CC(=O)C1=C(C)NC2=C(C(=O)CC(C)(C)C2)C1C (stereo not given)" system_under_test="Sphingomyelin phosphodiesterase (Homo sapiens)" test_result=inactive
compound=COC(=O)c1c(C(=O)OC)c2n(c1C)CCS2 system_under_test="Sphingomyelin phosphodiesterase (Homo sapiens)" test_result=inactive
compound=COc1ccc(CN(CC(=O)NC2CCCC2)C(=O)CCC(=O)Nc2cc(C)on2)cc1 system_under_test="Sphingomyelin phosphodiesterase (Homo sapiens)" test_result=inactive
compound=CC(=O)NNC(=O)c1csc(Cc2c(Cl)sc3ccc(Cl)cc23)n1 system_under_test="Sphingomyelin phosphodiesterase (Homo sapiens)" test_result=inactive
compound=COCC(=O)N(C)[C@H]1C[C@H]2c3cc(Oc4ccccc4C)ccc3CCN2C(=O)[C@H]1[C@H](C)O system_under_test="Sphingomyelin phosphodiesterase (Homo sapiens)" test_result=inactive
compound=CCOc1ncccc1C(=O)OCC(=O)Nc1cccc(S(=O)(=O)N2CCCCCC2)c1 system_under_test="Sphingomyelin phosphodiesterase (Homo sapiens)" test_result=inactive

[Q] Give outcome only, for O=C(N/N=C/c1cccc2cccnc12)[C@H]1C[C@@H]1c1ccccc1 , using Sphingomyelin phosphodiesterase (Homo sapiens) data.
[A] inactive

[Q] Give outcome only, for CC1CCN(c2ccc(S(=O)(=O)Nc3cc(C(=O)O)cc(C(=O)O)c3)cc2[N+](=O)[O-])CC1 , using Sphingomyelin phosphodiesterase (Homo sapiens) data.
[A] inactive

[Q] Give outcome only, for CSCCC(NC(N)=O)C(=O)N(C)CC(=O)Nc1ccc(C)cc1 (stereo not given) , using Sphingomyelin phosphodiesterase (Homo sapiens) data.
[A] inactive

[Q] Give outcome only, for COc1cccc(N2CCN(C(=O)Nc3ccc4c(c3)NC(=O)CO4)CC2)c1 , using Sphingomyelin phosphodiesterase (Homo sapiens) data.
[A] inactive

src = PubChem BioAssay AID504937
